# Assay summary: Metabolic stability in mouse liver microsomes assessed as half life
# Assay type: ADME, Microsome
# Test conditions: microsomes
Observable: t1/2 (h)
Report only the number, with the unit h understood.

# example entries with known answers
O=C1CCC(N2Cc3cc(-c4cnc5ccccc5c4)ccc3C2=O)C(=O)N1 (stereo not given)	1.09
O=C1CCC(N2Cc3cc(NC(=O)c4cc5ccccn5n4)ccc3C2=O)C(=O)N1 (stereo not given)	0.105

Attention now shifts to the item below.
Incoming: Given the entry O=C1CCC(N2Cc3cc(NC(=O)c4cn5ccccc5n4)ccc3C2=O)C(=O)N1 (stereo not given) , report its measured t1/2.
Outgoing: 1.26

----------
DC50 listing for selected compounds.
# Study system: Cereblon/Casein kinase I alpha (Homo sapiens, UniProt P48729+Q96SW2)
# Sequence (P48729 whole entry): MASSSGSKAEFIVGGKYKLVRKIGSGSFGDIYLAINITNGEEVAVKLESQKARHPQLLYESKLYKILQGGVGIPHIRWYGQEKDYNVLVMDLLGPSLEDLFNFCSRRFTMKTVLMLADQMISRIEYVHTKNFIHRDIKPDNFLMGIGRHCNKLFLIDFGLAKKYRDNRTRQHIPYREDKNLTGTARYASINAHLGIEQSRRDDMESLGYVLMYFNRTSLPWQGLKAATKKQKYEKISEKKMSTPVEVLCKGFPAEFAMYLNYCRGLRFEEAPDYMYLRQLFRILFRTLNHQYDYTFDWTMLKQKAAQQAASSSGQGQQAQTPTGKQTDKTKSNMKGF
# Sequence (Q96SW2 whole entry): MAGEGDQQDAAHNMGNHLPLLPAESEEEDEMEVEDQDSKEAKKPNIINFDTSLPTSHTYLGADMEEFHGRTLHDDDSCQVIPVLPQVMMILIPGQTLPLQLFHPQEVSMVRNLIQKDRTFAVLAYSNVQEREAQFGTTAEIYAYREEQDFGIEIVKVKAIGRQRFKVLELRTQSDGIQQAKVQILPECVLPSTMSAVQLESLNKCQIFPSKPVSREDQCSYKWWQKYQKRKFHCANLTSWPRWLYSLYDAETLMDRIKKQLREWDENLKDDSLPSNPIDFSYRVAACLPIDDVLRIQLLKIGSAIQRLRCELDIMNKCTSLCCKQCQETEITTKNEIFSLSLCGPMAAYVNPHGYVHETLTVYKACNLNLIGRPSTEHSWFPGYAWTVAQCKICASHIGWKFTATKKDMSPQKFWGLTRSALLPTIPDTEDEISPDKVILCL
# Assay summary: Molecular glue activity at CRBN/HiBiT-tagged CK1-alpha in human Jurkat cells assessed as induction of CK1-alpha degradation incubated for 5 hrs by Nano-Glo HiBiT assay
# Type: cell-based
Report only the number, with the unit nM understood.

# example entries with known answers
O=C1CCC(N2Cc3cc(NC(=O)c4nc5ccccn5n4)ccc3C2=O)C(=O)N1 (centres undefined)	61
O=C1CCC(N2Cc3cc(NC(=O)c4cn5cc(F)ccc5n4)ccc3C2=O)C(=O)N1 (centres undefined)	6.1
O=C1CCC(N2Cc3cc(NC(=O)c4cn5cccc(C(F)(F)F)c5n4)ccc3C2=O)C(=O)N1 (centres undefined)	1.6
O=C1CCC(N2Cc3cc(NC(=O)c4cnc5ccccc5n4)ccc3C2=O)C(=O)N1 (centres undefined)	8.8

Incoming: Given the entry O=C1CCC(N2Cc3cc(NC(=O)c4cc5ncccn5n4)ccc3C2=O)C(=O)N1 (centres undefined) , report its measured DC50.
Outgoing: 61

Incoming: Would you mind doing Cc1c(C(=O)Nc2ccc3c(c2)CN(C2CCC(=O)NC2=O)C3=O)nc2ccccn12 (centres undefined) as well?
Outgoing: 8.4

Incoming: Would you mind doing O=C1CCC(N2Cc3cc(NC(=O)c4cn5ccccc5n4)ccc3C2=O)C(=O)N1 (centres undefined) as well?
Outgoing: 5.7

Incoming: Would you mind doing COc1ccn2cc(C(=O)Nc3ccc4c(c3)CN(C3CCC(=O)NC3=O)C4=O)nc2c1 (centres undefined) as well?
Outgoing: 3.1

Incoming: Would you mind doing O=C1CCC(N2Cc3c(CNC(=O)c4cnc5ccccc5c4)cccc3C2=O)C(=O)N1 (centres undefined) as well?
Outgoing: 138
